# Tested on: Fibroblast
# test.description: Incucyte cell viability with human fibroblast; also: filed as whole numbers so only -1 and 0 and 1 occur
# Type: toxicity, cell-based
# condition.label: 24 h, 10 µM, compound concentration 10 uM, replicate number 1, timepoint 24 hours
measured.endpoint: Growth Rate
Reply with the value as a number alone.

Value of measured Growth Rate for the entry O=C(Nc1cccnn1)N1CC(C/C=C/c2cncc(Oc3ccc(C(F)(F)F)cn3)n2)C1 : 1

Value of measured Growth Rate for the entry COC(=N)c1nc2ccc3ncnc(Nc4ccc(OC)cc4F)c3c2s1 : 0

Value of measured Growth Rate for the entry COc1ccc(S(=O)(=O)N(CCO)c2ccccc2CN(C)C/C=C/c2ccc(Cl)cc2)cc1.O=P(O)(O)O : 0

Value of measured Growth Rate for the entry CCCCCCCCCCCCCCCCOC[C@H](COP(=O)([O-])OCC[N+](C)(C)C)OC(C)=O : 1

====

# Test system: HEK-293T
# test.description: Multiplex assay against HEK293T
# Assay type: toxicity, cell-based
# condition.label: human, 12 h, 1 µM, compound concentration 1 uM, replicate 1
Could you please classify the records by Population Mitochondria Different-Phenotype (%) using these ranges: low range = under 9%, mid range = from 9% up to 80%, high range = 80% and over

These recorded examples may help you get a feel for the data.
compound	class.assignment
CCN1CCN(c2ccc(Nc3cc(N(C)C(=O)Nc4c(Cl)c(OC)cc(OC)c4Cl)ncn3)cc2)CC1	mid range
Cc1cn(-c2cc(NC(=O)c3ccc(C)c(Nc4nccc(-c5cccnc5)n4)c3)cc(C(F)(F)F)c2)cn1	high range
CCOC(=O)c1c(C)[nH]c2ccc3c(c12)CN1CCc2cc(OC)ccc2C1O3 (configuration not stated)	high range
CN([C@@H](Cc1ccc(OS(=O)(=O)c2cccc3cnccc23)cc1)C(=O)N1CCN(c2ccccc2)CC1)S(=O)(=O)c1cccc2cnccc12	mid range
CNC(=O)c1ccc(Nc2nc(OC3CCCC3)c3c(-c4ccc5nc(C)oc5c4)c[nH]c3n2)c(OC)c1	mid range

# evaluate next
**Q:** Any idea which band NC(=O)c1cccc(-c2cc(Nc3ccc(OC(F)(F)F)cc3)ncn2)c1 is in?
**A:** low range

====

Property: Population Mitochondria Different-Phenotype (%); scope: individual compounds
# Test system: U2OS
# test.description: Multiplex assay against U2OS
# Assay type: toxicity, cell-based
# condition.label: human, 12 h, 1 µM, compound concentration 1 uM, replicate 1
// return the numeric value with its unit appended

Completed entries (count: 6):
compound	experimental.result
O=C(Cc1ccc(-c2ccc(OCCN3CCOCC3)cc2)cn1)NCc1ccccc1	20%
COc1cc2ncnc(Nc3ccc(F)c(Cl)c3)c2cc1NC(=O)/C=C/CN1CCCCC1 [DACOMITINIB ANHYDROUS]	3%
CCCS(=O)(=O)Nc1ccc(F)c(C(=O)c2c[nH]c3ncc(Cl)cc23)c1F	21%
CN[C@@H]1C[C@H]2O[C@@](C)([C@@H]1OC)n1c3ccccc3c3c4c(c5c6ccccc6n2c5c31)C(=O)NC4	57%
C=CCn1c(=O)c2cnc(Nc3ccc(N4CCN(C)CC4)cc3)nc2n1-c1cccc(C(C)(C)O)n1	15%
CCN1CCN(c2ccc(Nc3cc(N(C)C(=O)Nc4c(Cl)c(OC)cc(OC)c4Cl)ncn3)cc2)CC1	38%

Record CN1CCC(=C2c3ccccc3CC(=O)c3sccc32)CC1.O=C(O)/C=C/C(=O)O [KETOTIFEN FUMARATE] has U2OS Population Mitochondria Different-Phenotype (%) equal to 19%

Record CCCS(=O)(=O)c1nc(NC2CC2)cc(-c2ccc3c(ccn3C3CC(C)(C)NC(C)(C)C3)c2)n1 has U2OS Population Mitochondria Different-Phenotype (%) equal to 30%
